Biological target: human CDH17 as originally expressed in cells (cell surface CDH17 on AsPC1, GP2d and other cancer cell lines) (human, UniProt Q12864 23-832)
Experiment: cell-based or functional assay
Kindly state IC50 of indirect killing assay to evaluate the internalization in AsPC1 cells for each of the entries shown.
Numbers only, in nM.

# count of solved cases: 3
BINDER	NUMBER
14B12 anti-CDH17 recombinant antibody (human IgG1) (antibody, V domains shown) VH: QVQLQESGPGLVKPSETLSLTCTVSGGSINTYYRSWIRQPPGKGLEWIGYIYYSGNTNYNPSLKSRVTISADTSKNQFSLNLISVTAADTAMYYCARAQYGEEAFDIWGQGTLVTVSS VL: DIQMTQSPSSLSASVGDRVTITCRASQSITTYLNWYQQKPGKAPQLLIFAASRLQTGVPSRFSGSGSGTDFTLTISSLLPGDFATYYCQQSYNTPPTFGGGTKVEIKR	0.09
2F9 anti-CDH17 recombinant antibody (human IgG1) (antibody, V domains shown) VH: EVQLVESGGGVVRPGGSLRLSCAASGFTFDDYGMSWVRQAPGKGLEWVSGLSWNGGNTYYADSVKGRFTISRDNAKNSLYLQMNSLRAEDTALYYCARGSRYNWNYDAFDIWGQGTLVTVSS VL: DIQMTQSPSSLSASIGDRVTITCRASQGIRNALGWYQQKPGKAPKRLIYAASNLQSGVPSRFSGSGSGTEFTLTISSLQPEDFATYYCLQHNSYPFTFGPGTKVEIKR	0.14
4F9 anti-CDH17 recombinant antibody (human IgG1) (antibody, V domains shown) VH: QVQLQESGPGLVKPSGTLSLTCAVSGGSISSSNWWSWVRQPPGKGLEWIGEIYHSGSTSYNPSLKSRVTISVDKSKNQFSLKLSSVTAADTAVYYCARNDWGFPLDCWGQGTLVTVSS VL: DIQMTQSPSSLSASVGDRVTITCRASQSISSYLNWYQQKPGKAPKLLIYAASSLQSGVPSRFSGSGSGTHFTLTISSLQPEDFATYYCQQSHNIPITFGQGTRLEIKR	0.29

Please state, for each entry, its recorded IC50 of indirect killing assay to evaluate the internalization in AsPC1 cells.
1. 10E11 anti-CDH17 recombinant antibody (human IgG1) (antibody, V domains shown) VH: EVQLVQSGTEVKKPGESLKISCKDSGYRFSSYWIGWVRQMPGKGLEWMGIIYPGDSDTRYSPSFQGQVTISADKSISTAYLQWRSLKASDTAMYYCARRGWVNYFDYWGQGTLVTVSS VL: DIQMTQSPSSVSASVGDRVTITCRASQGISNWLGWYQQKPGKAPKLLIYAASSLQSGVPSRFSGSGSGTDFTLTISSLQPEDFATYYCQQANSFPLTFGGGTKVEIKR
2. 13C7 anti-CDH17 recombinant antibody (human IgG1) (antibody, V domains shown) VH: QITLKESGPTLVKPTQTLTLTCTFSGFSLSTSGVGVGWIRQPPGKALEWLALIYWNDDKRYRPSLKNRLTITKDTSKNQVVLTMTNMDPVDTATYYCTHYGVTAPFYNWFDPWGQGTLVTVSS VL: DIQMTQSPSSLSASVGDRVTITCRASQSITSYLNWYQQKPGKAPKLLIYAASSLQSGVPSRFSGSGSGTDFTLTISSLQPEDFATYYCQRSYSTLTFGGGTKVEIKR

Return:
[0.08, 0.09]
